Source: the supplement of paper PMC11417369

# Tested on: PfAP2-G AP2 domain (GST-tagged)
# METHOD DESCRIPTION: gcPBM binding intensity (ln(normalized median fluorescence intensity)); higher = stronger DNA binding
Whole data set: some 25,000 sequences, median “ln(normalized median fluorescence intensity)” near 10, cut for the highest 2% near 12. This is one part of a sample in which the highest values are shown more often than they occur.
Exercise: state measured gcPBM binding intensity (ln) for each of the sequences provided.
Answer with the value's number alone.

Asked: Value lookup for gcPBM binding intensity (ln); key = CTTCTTGTAAAATTTGCATGTAATTAAAAGAGAATG [TGCATGCA_site484]
Given back: 10.2

Asked: What do you get for AAATTAATAAATATTTTTATAAATTATAATATTAAT [GTGCAC_negctrl_site533] ?
Given back: 9.37

Asked: What do you get for AATATATATTTGTGTACACATTATATATATATATAT [CACACA_site6103] ?
Given back: 11.9

Asked: What do you get for ATAAATACACACAAGTGTACATACTTCTATAAATAT [XGTACX_site1845] ?
Given back: 11.3

Asked: What do you get for ATATATTTATATTTGTGTACATATTTATTATATTTA [XGTACX_site404] ?
Given back: 11.5

Asked: What do you get for AAGGAAATATAATATACACACATAAGTGTACTTATA [CACACA_site4030] ?
Given back: 11.6

Asked: What do you get for CATAAAAATGGATACACACACATAATATATATATAT [CACACA_site3619] ?
Given back: 10.2

Asked: What do you get for CCGCCATTGTACCATCCACACACATATATATATGTA [CACACA_site8866] ?
Given back: 10.9

Asked: What do you get for TATATATATTTTTGAAGTACTTATTACACTAGCATT [XGTACX_site8965] ?
Given back: 11.2
